test system: biotin-Py24 (VEGF i-motif) (DNA, i motif) GACCCCGCCCCCGGCCCGCCCCGG; experiment: SPR; settings: 100 mM KCl; 20 mM MES pH 5.5, 0.05% Tween-20, 25 °C; tested up to 50 μM
Measure name: KD

Would you please look over these solved cases?
1. CC1(C)CC[C@]2(C(=O)NCc3cn(CCCN4CCOCC4)nn3)CC[C@]3(C)C(=CC[C@@H]4[C@@]5(C)CC[C@H](O)C(C)(C)[C@@H]5CC[C@]43C)[C@@H]2C1 | > 50 µM
2. COC(=O)[C@]12CCC(C)(C)C[C@H]1[C@H]1C(=O)C[C@@H]3[C@@](C)(CCC(=O)Nc4ccc(OC(F)(F)F)cc4)[C@H](C(C)(C)O)CC[C@@]3(C)[C@]1(C)CC2 | > 50 µM

QUERY: Which KD value is on record for CC1(C)CC[C@]2(C(=O)N3CCN(c4cccc(C(F)(F)F)c4)CC3)CC[C@]3(C)C(=CC[C@@H]4[C@@]5(C)CC[C@H](O)C(C)(C)[C@@H]5CC[C@]43C)[C@@H]2C1 ?
RESULT: > 50 µM
